# experimental-protocol: Cytotoxicity against human MS cells assessed as reduction in cell viability incubated for 72 hrs by MTT assay
# Assay type: functional, cell-based
measure-name: IC50 (µM)
Lab book: enter the figure in µM, no units written.

C=C(C=O)[C@@H]1CC[C@]2(C(=O)OC)CC[C@]3(C)[C@H](CC[C@@H]4[C@@](C)(CC#N)[C@H](C(C)(C)C(C)=O)CC[C@]43C)[C@@H]12 ... 5.48
C[C@@H](O)C(C)(C)[C@@H]1CC[C@]2(C)[C@H](CC[C@@H]3[C@H]4[C@H]5OC[C@@]4(CCC5(C)C)CC[C@]32C)[C@@]1(C)CC#N ... 83.3
C=C(C)[C@@H]1CC[C@]2(C(=O)OC)CC[C@]3(C)[C@H](CC[C@@H]4[C@@](C)(CC#N)[C@H](C(C)(C)[C@@H](C)O)CC[C@]43C)[C@@H]12 ... 15.1
CC(=O)O[C@H](C)C(C)(C)[C@@H]1CC[C@]2(C)[C@H](CC[C@@H]3[C@H]4[C@H]5OC[C@@]4(CCC5(C)C)CC[C@]32C)[C@@]1(C)CC#N ... 21.3

# input Fill in IC50 for record CC[C@@]1(O)C(=O)OCc2c1cc1n(c2=O)Cc2cc3ccccc3nc2-1
# output 1.84

# input Fill in IC50 for record C=C(C)[C@@H]1CC[C@]2(C(=O)OC)CC[C@]3(C)[C@H](CC[C@@H]4[C@@]5(C)C/C(=N\O)[C@](C)(O)C(C)(C)[C@@H]5CC[C@]43C)[C@@H]12
# output 23.5

# input Fill in IC50 for record C=C(C=O)[C@@H]1CC[C@]2(C(=O)OC)CC[C@]3(C)[C@H](CC[C@@H]4[C@@]5(C)C(C#N)=C(C)C(C)(C)[C@@H]5CC[C@]43C)[C@@H]12
# output 8.59

# input Fill in IC50 for record CC1(C)CC[C@]23CC[C@]4(C)[C@H](CC[C@@H]5[C@@]6(C)C/C(=N\O)[C@](C)(O)C(C)(C)[C@@H]6CC[C@]54C)[C@H]2[C@H]1OC3
# output 87.3

# input Fill in IC50 for record C=C(C=O)[C@@H]1CC[C@]2(C(=O)OC)CC[C@]3(C)[C@H](CC[C@@H]4[C@@](C)(CC#N)[C@H](C(C)(C)C(=O)CBr)CC[C@]43C)[C@@H]12
# output 3.41

# input Fill in IC50 for record C=C(C)[C@@H]1CC[C@]2(C(=O)OC)CC[C@]3(C)[C@H](CC[C@@H]4[C@@](C)(CC#N)[C@H](C(C)(C)[C@@H](C)OC(C)=O)CC[C@]43C)[C@@H]12
# output 96.9

# input Fill in IC50 for record C=C(C=O)[C@@H]1CC[C@]2(C(=O)OC)CC[C@]3(C)[C@H](CC[C@@H]4[C@@](C)(CC#N)[C@H](C(C)(C)C(=O)C(Br)Br)CC[C@]43C)[C@@H]12
# output 6.27

// data source = ChEMBL document CHEMBL4190348
